# Target or test system: Protein farnesyltransferase (Homo sapiens, UniProt P49354+P49356)
# Run description: Inhibition of human recombinant farnesyltransferase using farnesylpyrophosphate and dansyl-GCVLS as substrate measured for 15 mins by fluorescence assay
pIC50: −log10 of the molar value.
Measurement type: pIC50

Record excerpt, results attached:
> print(dat)
                              smiles.record                     target.or.test.system  recorded.number
1  COc1cc(/C=C/C(=O)c2ccc3c(C)cc(C)cn23)cc(OC)c1OC  Protein farnesyltransferase (Homo sapiens, UniProt P49354+P49356)             6.14
2  CCOC(=O)c1cc(C(=O)/C=C/c2ccc(-c3ccccc3)cc2)n2ccc(OC)cc12  Protein farnesyltransferase (Homo sapiens, UniProt P49354+P49356)             5.88
3  CCOC(=O)c1cc(C(=O)/C=C/c2cc(OC)c(OC)c(OC)c2)n2ccccc12  Protein farnesyltransferase (Homo sapiens, UniProt P49354+P49356)             4.71

(1) CCOC(=O)c1cc(C(=O)/C=C/c2ccc(Br)cc2)n2ccc(OC)cc12
(2) CCOC(=O)c1cc(C(=O)/C=C/c2cc(OC)c(OC)c(OC)c2)n2ccc(OC)cc12
When their pIC50 values are compared, which is larger, 1 or 2 ? Your answer should be the label of the entry you select.
1

(I) COc1ccn2c(C(=O)/C=C/c3ccc(Cl)cc3)cc(C(=O)O)c2c1
(II) CCOC(=O)c1cc(C(=O)/C=C/c2ccc(C#N)cc2)n2ccc(OC)cc12
For the pair I and II , which member has the lower pIC50 number? Your answer should be the label of the entry you select.
II

* * *

# Target or test system: Protein farnesyltransferase (Homo sapiens, UniProt P49354+P49356)
# Run description: Inhibition of human recombinant farnesyltransferase using farnesylpyrophosphate and dansyl-GCVLS as substrate at 100 uM measured for 15 mins by fluorescence assay
# Type: protein-complex assay
Measurement type: inhibition (%)

> print(dat)
                              smiles.record                     target.or.test.system  output.unit  recorded.number
1  CCOC(=O)c1cc(C(=O)/C=C/c2ccc3c(c2)Sc2ccccc2N3C)n2ccc(OC)cc12  Protein farnesyltransferase (Homo sapiens, UniProt P49354+P49356)            %               84
2  CCOC(=O)c1cc(C(=O)/C=C/c2ccc3c(c2)Sc2ccccc2N3C)n2ccccc12  Protein farnesyltransferase (Homo sapiens, UniProt P49354+P49356)            %               85
3  COc1ccn2c(C(=O)/C=C/c3ccc(Cl)cc3)cc(C(=O)O)c2c1  Protein farnesyltransferase (Homo sapiens, UniProt P49354+P49356)            %               88
4  CCOC(=O)c1cc(C(=O)/C=C/c2ccc3c(c2)Sc2ccccc2N3C)n2ccc(C)cc12  Protein farnesyltransferase (Homo sapiens, UniProt P49354+P49356)            %               98
5  CCOC(=O)c1cc(C(=O)/C=C/c2cc(OC)c(OC)c(OC)c2)n2ccc(OC)cc12  Protein farnesyltransferase (Homo sapiens, UniProt P49354+P49356)            %               76

(1) CCOC(=O)c1cc(C(=O)/C=C/c2ccc3c(c2)Sc2ccccc2N3C)n2c(C)cccc12
(2) CCOC(=O)c1cc(C(=O)/C=C/c2cc(OC)c(OC)c(OC)c2)n2c(C)cccc12
When their inhibition values are compared, which is larger, 1 or 2 ? Your answer should be the label of the entry you select.
1

(I) CCOC(=O)c1cc(C(=O)/C=C/c2ccc(Br)cc2)n2ccc(OC)cc12
(II) CCOC(=O)c1cc(C(=O)/C=C/c2ccc(OC)cc2)n2ccc(OC)cc12
When their inhibition values are compared, which is larger, I or II ? Your answer should be the label of the entry you select.
I
(I: 100%, II: 68%)
